These entries and their values trace back to PubChem BioAssay (NCI).

Test system: SK-MEL-5 melanoma
Test: NCI tumour cell line growth inhibition, 48 h
TGI values, listed per item

Fill in the recorded TGI for this compound, with SK-MEL-5 melanoma as test system: N#CCCN1C/C(=C/c2ccc(Cl)cc2)C(=O)/C(=C/c2ccc(Cl)cc2)C1
2.98 µM

What about COc1ccc(/C=C2\CCC(C)(CN(C)C)C2=O)cc1OC (stereo unspecified) ?
> 100 µM

Next compound up: CN(C)C(=NCc1ccccc1)NC#N
> 100 µM

Same again, this time with COC(=O)C(CCSC)NC(=O)CNC(=O)CSc1nnc(COc2ccc(Cl)cc2)n1-c1ccccc1 (stereo unspecified)
31.4 µM

Please do the same for c1ccc2c(c1)Nc1ccncc1S2 as well.
> 100 µM

Now consider NS(=O)(=O)c1ccc(-c2cc3ccncc3cc2OCc2ccccc2)cc1 .
> 25 µM

Next compound: Cc1ccccc1NC(=O)C(=O)C(C#N)c1ccccc1C (stereo unspecified)
> 100 µM

One more compound: O=C(c1nc2ccccc2[nH]c1=O)C(O)c1ccccc1 (stereo unspecified)
> 100 µM

Follow-up item: O=[N+]([O-])c1ccc(-c2nc3ccc(Cl)cc3[nH]2)cc1
> 100 µM

What do you get for C(=N/N(Cc1ccccc1)Cc1ccccc1)/c1ccccc1 ?
> 100 µM

Then this compound: CCc1cccc(C)c1NC(=O)c1sc2nc3c(cc2c1N)C(=O)CCC3
5.89 µM

----------
Test system: NCI-H226 lung
Assay: NCI tumour cell line growth inhibition, 48 h
# reported TGI; entries follow
Write the answer as a number in µM, unit excluded.

| compound | unit.symbol | TGI |
| --- | --- | --- |
| CC1(c2ccccc2Cl)C(C#N)C(=O)NC(=O)C1C#N (centres undefined) | µM | 98 |

Now look at this entry.
Returns the measured TGI for the input compound. Input: CCC(=O)C(CCN1CCC2(CCCc3ccccc32)CC1)(c1ccccc1)c1ccccc1
6.58

----------
System: ACHN renal
Assay: NCI tumour cell line growth inhibition, 48 h; in the data active = GI50 below about 0.43 µM; inactive = the rest
The reply should name one outcome from active, inactive

Record excerpt, results attached:
| molecule | category |
| --- | --- |
| COc1ccc(N(CC(=O)NCCC[Te]c2ccccc2)C(=O)CNC(=O)OC(C)(C)C)cc1 | inactive |
| COc1ccc(NC(=O)C2CCC(CNS(=O)(=O)c3ccccc3)CC2)cc1OC (stereo unspecified) | inactive |
| C/C(=C\c1cnc(C)s1)[C@@H]1C[C@@H]2O[C@@H]2CCC[C@H](C)[C@H](O)[C@@H](C)C(=O)C(C)(C)[C@@H](O)CC(=O)O1 | active |

Dear all, I need the recorded test outcome for COC(=O)c1cncc(/C=C/c2c(C)cc(O)cc2C)c1 , thank you.
inactive

Now the same for c1ccc2c(c1)Nc1ccncc1S2
inactive

----------
Test system: LXFL 529 NSCLC
Assay: NCI tumour cell line growth inhibition, 48 h
Measured TGI, listed per entry for reference.

Example entries begin here.
| compound | system.tested | TGI |
| --- | --- | --- |
| COC(=O)[C@@]1(C(C)CC(=O)O)CCCCC1=O (stereo partly drawn) | LXFL 529 NSCLC | > 100 µM |
| CN1C(c2ccccc2)CC(=O)C(N)C1c1ccccc1 (stereo not drawn) | LXFL 529 NSCLC | 37.5 µM |
| COc1cc(C(C)O)c[n+](Cc2ccccc2)c1 (stereo not drawn) | LXFL 529 NSCLC | > 100 µM |
| CCCCC1(C)C=C/C(=C2/C(=O)O/C(=C\C(=O)O)C2=O)O1 (stereo not drawn) | LXFL 529 NSCLC | > 100 µM |
| NC(=O)c1csc(C2OC(COP(=O)(O)CP(=O)(O)OCC3OC(n4cnc5c(N)ncnc54)C(O)C3O)C(O)C2O)n1 (stereo not drawn) | LXFL 529 NSCLC | > 100 µM |

Requested field: TGI. Item: C[CH2][Sn]([CH2]C)([O]C(=O)c1ccccc1OC)[O][Sn]([CH2]C)([CH2]C)[O]C(=O)c1ccccc1OC
28.5 µM

Cool, now Cc1ccccc1NC(=O)C(=O)C(C#N)c1ccccc1C (stereo not drawn)
> 100 µM

And then N#CC(c1ccccn1)c1nc2ccccc2[nH]1 (stereo not drawn) , what is it?
> 100 µM

----------
We begin with a simple list: items and their reported GI50.
Tested on: NCI-H226 lung
Test: NCI tumour cell line growth inhibition, 48 h

| compound | system.tested | value.observed |
| --- | --- | --- |
| Cc1cc(C)nc(SC2=C(Nc3cc(Cl)ccc3O)C(=O)N(Cc3ccccc3)C2=O)n1 | NCI-H226 lung | 1780 nM |
| C[CH2][Sn]([CH2]C)([O]C(=O)c1ccccc1OC)[O][Sn]([CH2]C)([CH2]C)[O]C(=O)c1ccccc1OC | NCI-H226 lung | > 100000 nM |
| COc1cc2nc(-c3cc(F)ccc3O)nc(N[C@@H]3CNC[C@H]3C(C)(C)O)c2cc1OC | NCI-H226 lung | 1480 nM |

Data request, read-out GI50, for Oc1c(I)cc(I)c2cccnc12
4510 nM

And CC1(C)CC(=O)C2=C(C1)OC(N)=C(c1nc(-c3ccccc3)cs1)C2c1ccc(Br)cc1 (stereo not given) ?
22.8 µg/mL

----------
Tested on: HOP-92 NSCLC
Assay: NCI tumour cell line growth inhibition, 48 h
Where a SMILES comes first, the peptide text is derived from it. The star is where a group is joined. Palmitoyl = CCCCCCCCCCCCCCCC(=O)*
test.readout: GI50

| molecule | GI50 |
| --- | --- |
| CC1=C(CC(=O)c2cccc([N+](=O)[O-])c2)C(=O)c2ccccc2C1=O | 4.38 µM |
| Cc1cccc2c3c(sc12)C(c1ccc(Cl)cc1)C(C#N)=C(N)O3 (stereo unspecified) | 1.32 µM |
| CCCCCCCCCCCCCCCC(=O)N1CCCC1C(=O)NCC(=O)NC(Cc1ccccc1)C(=O)NC(C)C(=O)NC(CO)C(=O)NC(Cc1ccc(O)cc1)C(=O)NC(CCCCN)C(=O)NC(CC(C)C)C(=O)NC(CCCN=C(N)N)C(=O)N1CCCC1C(=O)NCC(N)=O (stereo unspecified) (Palmitoyl-PGFASYKLRPG-NH2; configuration not given here) | 15.8 µM |
| Oc1c(I)cc(I)c2cccnc12 | 8.48 µM |

// query GI50 value for entry COC(=O)[C@H]1CCCN1C(=O)[C@H]1CCCN1C(=O)[C@@H](Cc1c[nH]c2ccccc12)NC(=S)Nc1cc(C(F)(F)F)cc(C(F)(F)F)c1
1.2 µM

Consider next the molecule Cn1cc(C2=C(c3cccc(OC[C@@H](O)CO)c3)C(=O)NC2=O)c2ccccc21 in the same way.
> 25 µM

Now this one: C(=N/N(Cc1ccccc1)Cc1ccccc1)/c1ccccc1
53.3 µM

Here is the next molecule: COC1=C(OC)C(=O)C(SC/C=C(\C)CCCC(C)CCCC(C)CCCC(C)C)=CC1=O (stereo unspecified)
1.41 µM

Repeat with Cc1ccc(-c2nc([P+](c3ccccc3)(c3ccccc3)c3ccccc3)c(S(=O)(=O)c3ccc(C)cc3)o2)cc1
1.43 µM

Consider next the molecule NS(=O)(=O)c1ccc(-c2cc3ccncc3cc2OCc2ccccc2)cc1 in the same way.
4.94 µM

Cc1cc(N=Nc2ccccc2C)ccc1N , same question.
7.41 µM

----------
Test system: SF-295 CNS
Assay: NCI tumour cell line growth inhibition, 48 h
Readings of log10 of TGI for the listed compounds
Please interpret these as log10 of TGI where TGI is in µM.

| compound | log10 of TGI |
| --- | --- |
| CCN(CC)CCCCCCNc1cc(OC)cc2cccnc12 | 1.42 |
| CC1OC(OC2C(O)CC(OC3C(O)CC(OC4CCC5(C)C(CCC6C5CC(O)C5(C)C(C7=CC(=O)OC7)CCC65O)C4)OC3C)OC2C)CC(O)C1O (stereo unspecified) | -0.77 |
| O=C(/C=C/c1cccc(O)c1)c1cccc(-n2cc(-c3ccccc3)[nH]c2=O)c1 | 1.07 |
| Clc1cc(Cl)cc(N=C/C=C/Nc2cc(Cl)cc(Cl)c2)c1 | 1.71 |
| Cc1ccc(/C(C#N)=C/c2cccc([N+](=O)[O-])c2)cc1 | 1.83 |
| CC1(C)CC[C@]2(C)CC[C@]3(C)C(=CC[C@@H]4[C@@]5(C)CCC(=O)C(C)(C)[C@@H]5[C@H](O)C[C@]43C)[C@@H]2C1 | 1.51 |

Request the reported log10 of TGI associated with Oc1ccc(C(c2ccc(O)cc2)c2ccc(Br)cn2)cc1
0.21

Subsequent entry: CN(CCNCc1ccccn1)CCNCc1ccccn1
0.76

----------
Tested on: CCRF-CEM leukemia
Experiment: NCI tumour cell line growth inhibition, 48 h
test.readout: TGI

Solved entries (count: 6):
| compound | value.observed |
| --- | --- |
| COC(=O)c1cncc(/C=C/c2c(C)cc(O)cc2C)c1 | > 25 µM |
| CC1(C)CC(=O)C2=C(C1)OC(N)=C(c1nc(-c3ccccc3)cs1)C2c1ccc(Br)cc1 (configuration not stated) | > 150 µg/mL |
| COC(=O)C(CCSC)NC(=O)CNC(=O)CSc1nnc(COc2ccc(Cl)cc2)n1-c1ccccc1 (configuration not stated) | 26.1 µM |
| CCCCCCCCCCCCC(Br)C(=O)NCC(N)=O (configuration not stated) | 66.3 µM |
| NC(=O)c1csc(C2OC(COP(=O)(O)CP(=O)(O)OCC3OC(n4cnc5c(N)ncnc54)C(O)C3O)C(O)C2O)n1 (configuration not stated) | > 100 µM |
| COC(=O)/C=C(\CC(=O)OC)n1nnnc1[C@@H]1C[C@H](COC(c2ccccc2)(c2ccccc2)c2ccccc2)[C@H]2OC(C)(C)O[C@H]21 | > 100 µM |

Reported TGI, compound c1ccc2oc(-c3ccc(-c4nc5ccccc5o4)c4c3CC4)nc2c1 : ____
> 100 µM

Follow-up entry: O=C(O)/C=C/c1nc2ccccc2c(=O)o1
> 100 µM

How about CC(=O)OCCOCNC(=S)N/N=C/c1cc(Br)cs1 ?
> 100 µM

Thanks! And CCc1c(C)c(C#N)c(=S)n(C2OC(COC(C)=O)C(OC(C)=O)C(OC(C)=O)C2OC(C)=O)c1-c1ccccc1 (configuration not stated) ?
> 100 µM

Queued: COC(=O)c1c(C)n([O-])c2cc(Cl)c(Cl)cc2[n+]1=O
42.3 µM

Param item: NNC(=O)c1c(-c2cccnc2)cnc2ccccc12
> 100 µM

What would you report for CCOC(=O)N1N=C(/C(C)=N/OC)C(C)S1=O (configuration not stated) ?
> 100 µM

Then O=C1C(Cl)C2(CC(/C=C/c3ccccc3)=NN2c2cccc(S(=O)(=O)O)c2)N1c1nc2ccccc2s1 (configuration not stated) ?
32.4 µM

Proceed to COc1ccc2c(c1)c1c(n2CCN(C)C)-c2ccccc2CC1
38.6 µM

CC12CCC(=O)N1c1ccc([N+](=O)[O-])cc1N2 (configuration not stated) , same question.
> 100 µM
